This section presents variants with their documented abundance fitness values.
B1: Protein S100-G, residues 1 to 79; numbered along this chain, P02633 (parent)
chain: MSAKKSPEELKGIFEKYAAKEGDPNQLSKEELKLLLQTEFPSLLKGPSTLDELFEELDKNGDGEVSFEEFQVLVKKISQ

Variants of: B1
assay.overview: abundance fitness (aPCA) (normalised: wild type 0, dead -1); higher = more abundant; growth selection in yeast, the domain comes from the species named
settings: Bos taurus
readout: abundance fitness

INSERT INTO results (monomer_sequence, observed_result) VALUES
  ('MSAKKSPAELKGIFEKYAAKEGDPNQLSKEELKLLLQTEFPSLLKGPSTLDELFEELDKNGDGEVSFEEFQVLVKKISQ', -0.054),
  ('MSAKKSPEELKGIFEKYAAKEGDPNQLSKEELKLLLQTEFPSLLKGPSTLDELFVELDKNGDGEVSFEEFQVLVKKISQ', -0.012),
  ('MSAKKSPEELKGIFEKYAAKEGDPNQLSKEELKLLLQTEFPSLLKGPSTLDELFEELDENGDGEVSFEEFQVLVKKISQ', -0.005),
  ('MSAKKSPEELKGIFEKYAAKEGDPNQLSKEELKLLLQTEFPSLLKGPSTLDELFEELDKNGDMEVSFEEFQVLVKKISQ', -0.019),
  ('MSAKKSPEELKGIFEKYAAKEGDPNQLSKEELKLLLQTEFPSLLKGPSTLDELFEELCKNGDGEVSFEEFQVLVKKISQ', -0.022),
  ('MSAKKSPEELKGIFEKYAAKEGDPNQLSKEELKLLLQTELPSLLKGPSTLDELFEELDKNGDGEVSFEEFQVLVKKISQ', -0.037),
  ('MSAKKSPEELKGWFEKYAAKEGDPNQLSKEELKLLLQTEFPSLLKGPSTLDELFEELDKNGDGEVSFEEFQVLVKKISQ', -0.231),
  ('MSAKKSPEELKGIFEKYAAKEGDPNQLSKEELKLLLQTEFPSLLEGPSTLDELFEELDKNGDGEVSFEEFQVLVKKISQ', 0.005),
  ('MSAKKSPEELKGIFEKYAAKEGDPNQLSKEELKLLLQTEFPSLLKGPSTLDELFEELDKNGDGEVSFEEFQVLVKKESQ', -0.142),
  ('MSAVKSPEELKGIFEKYAAKEGDPNQLSKEELKLLLQTEFPSLLKGPSTLDELFEELDKNGDGEVSFEEFQVLVKKISQ', -0.145),
  ('MSAKKSPEELKGIFEKYAAKEGDPNQLSKEELKLLLQTEFPSLLKGPSTLDELFEELDKNGDGEVSFEEFQVLVKKIGQ', -0.329),
  ('MSAPKSPEELKGIFEKYAAKEGDPNQLSKEELKLLLQTEFPSLLKGPSTLDELFEELDKNGDGEVSFEEFQVLVKKISQ', -0.097),
  ('MSAKKSPEELKGIFEKYAAKEGDPNQLSKEELKLLLQTEFPSLLKGPSTLDELFEELDKNGDGEVSFEEFQVLVKKIPQ', 0.258),
  ('MSAKRSPEELKGIFEKYAAKEGDPNQLSKEELKLLLQTEFPSLLKGPSTLDELFEELDKNGDGEVSFEEFQVLVKKISQ', -0.154),
  ('MSAQKSPEELKGIFEKYAAKEGDPNQLSKEELKLLLQTEFPSLLKGPSTLDELFEELDKNGDGEVSFEEFQVLVKKISQ', -0.06),
  ('MSAKKSPEELKGIFEKYAAKEGDPNQLSKEELKLLLQTEFPSLLKGPSTLDELFEKLDKNGDGEVSFEEFQVLVKKISQ', -0.071),
  ('MSATKSPEELKGIFEKYAAKEGDPNQLSKEELKLLLQTEFPSLLKGPSTLDELFEELDKNGDGEVSFEEFQVLVKKISQ', 0.06),
  ('MSAKKSPEELKGIFEKYAAKEGDPNQLSKEELKLLLQTEFPSLRKGPSTLDELFEELDKNGDGEVSFEEFQVLVKKISQ', -0.024),
  ('MSAKKSPEELKGIFEKYAAKEGDPNQLAKEELKLLLQTEFPSLLKGPSTLDELFEELDKNGDGEVSFEEFQVLVKKISQ', 0),
  ('MSAKKSPEELKGIFEKYAAKEGDPNQLSKEELKLLLQTEFPSLLKGPSTLDELFEELDKIGDGEVSFEEFQVLVKKISQ', 0),
  ('MSAKKSPEELKGIFEKYAAKEGDPNVLSKEELKLLLQTEFPSLLKGPSTLDELFEELDKNGDGEVSFEEFQVLVKKISQ', -0.081),
  ('MSAKKSKEELKGIFEKYAAKEGDPNQLSKEELKLLLQTEFPSLLKGPSTLDELFEELDKNGDGEVSFEEFQVLVKKISQ', -0.062);
